Test: HILIC, Merck SeQuant ZIC-pHILIC, 100 × 2.1 mm, 5 µm, 25 °C; gradient (min/%B) 0/3 1/3 12/30 14.5/90 17/90 18.5/3 24/3
Conditions: stereoisomer not certain
endpoint: LC retention time

// query LC retention time value for entry NC(CS)C(=O)O (centres undefined) 11.8 min

What about NC(=O)CCC(N)C(=O)O (centres undefined) ? 12.9 min

Similarly, CN1CC(=O)NC1=N ? 9.87 min

Repeat for the following compound: O=c1c(O)c(-c2ccc(O)cc2O)oc2cc(O)cc(O)c12 6.55 min

Next compound: NC(CCCC(N)C(=O)O)C(=O)O (racemic) 14.8 min

Please give the result for O=C(CCc1ccc(O)cc1)c1c(O)cc(O)cc1OC1OC(CO)C(O)C(O)C1O (centres undefined) too. 7.09 min

Request: O=c1c2ccccc2oc2ccccc12 1.22 min

Now try NCCO . 12.9 min

For Nc1nc2nc[nH]c2c(=O)[nH]1 then? 9.81 min

---

Test: HILIC, Merck SeQuant ZIC-pHILIC, 100 × 2.1 mm, 5 µm, 25 °C; gradient (min/%B) 0/3 1/3 12/30 14.5/90 17/90 18.5/3 24/3
Details: stereoisomer not certain
For each entry below, report its LC retention time value.

Which LC retention time is listed for Nc1ccn(C2OC(CO)C(O)C2O)c(=O)n1 (stereo unspecified) [Cytidine] ? 10.5 min

Another: Nc1ncnc2c1ncn2C1CC(O)C(CO)O1 (stereo unspecified) [2'-Deoxyadenosine] 7.15 min

Follow-up entry: Nc1nc2ncc(CNc3ccc(C(=O)NC(CCC(=O)O)C(=O)O)cc3)nc2c(=O)[nH]1 (stereo unspecified) [Folic Acid] 11.4 min

Moving on to NCCCC[C@H](N)C(=O)O [L-Lysine] 15.9 min

Next compound: Nc1ccn(C2CC(O)C(CO)O2)c(=O)n1 (stereo unspecified) [Deoxycytidine] 10 min

Next compound up: Nc1ccc(C(=O)O)cc1 [P-Aminobenzoic acid] 2.26 min

Repeat for the following compound: NCCC[C@H](N)C(=O)O [L-Ornithine] 15.9 min

Here is the next compound: O=P([O-])([O-])OCC(O)CO [L-Alpha-Glycerophosphate] 13.5 min

Same again, this time with CCC(N)C(=O)O [L-a-Amino-n-butyric acid] 11.6 min

Now consider CC(C)[C@@H](N)C(=O)O [D-valine] and answer again. 10.5 min

Repeat for the following compound: CC(C)C[C@@H](N)C(=O)O [D-Leucine] 9.5 min

Another compound: COC(C)C(N)C(=O)O (stereo unspecified) [O-methyl threonine] 10.4 min

Now the same for NC(N)=O [Urea] 7.16 min

Continue with c1cnc2[nH]ccc2c1 [7-Azaindole] 1.74 min

And for CC(C)(C)[C@H](N)C(=O)O [L-tert-Leucine] ? 10 min

COc1cc2c(c(OC)c1OC)-c1ccc(OC)c(=O)cc1C(NC(C)=O)CC2 (stereo unspecified) [Colchicine] ? 1.36 min

# iterate: NCCc1c[nH]c2ccccc12 [Tryptamine] 9.86 min

Then Cc1cn(C2CC(O)C(COP(=O)(O)O)O2)c(=O)[nH]c1=O (stereo unspecified) [Thymidine monophosphate] ? 11.9 min

Then this compound: COc1ccc(Cc2cnc(N)nc2N)cc1OC [Diaveridine] 8.91 min

Consider next the compound Nc1ncnc2c1ncn2C1OC(CO)C(O)C1O (stereo unspecified) [Adenosine] in the same way. 7.78 min

What would you report for C[C@@H](OP(=O)(O)O)[C@H](N)C(=O)O [O-phospho-L-threonine] ? 14.5 min

Param item: C(=NC1CCCCC1)=NC1CCCCC1 [Dicyclohexylcarbodiimide-n n'] 1.09 min

Would you kindly repeat that for N[C@@H](CCO)C(=O)O [L-Homoserine] ? 12.6 min

Same thing, different compound: NC(Cc1ccc(O)c(O)c1)C(=O)O [Dihydroxyphenyl-analine L-3 4] 12.7 min

Next compound up: Cc1cc2nc3c(=O)[nH]c(=O)nc-3n(CC(O)C(O)C(O)CO)c2cc1C (stereo unspecified) [Riboflavin] 7.85 min

Another: N[C@@H](CCCC(=O)O)C(=O)O [L-2-Aminoadipic acid] 12.4 min

Record: O=c1[nH]c(=O)c2[nH]cnc2[nH]1 [Xanthine] 8.29 min

And what about the compound NCCS(=O)(=O)O [Taurine] ? 12.6 min

Also need Cc1c[nH]c(=O)[nH]c1=O [Thymine] , thanks. 3.51 min

Let us now turn to O=C(CO)C(OC1OC(CO)C(O)C(O)C1O)C(O)C(O)CO (stereo not drawn) [D(+)turanose] 12.6 min

Try the compound O=c1[nH]cnc2c1ncn2C1OC(CO)C(O)C1O (stereo unspecified) [Inosine] 9.18 min

Param item: CC(=O)OCC1OC(OC(C)=O)C(OC(C)=O)C(OC(C)=O)C1OC(C)=O (stereo not drawn) [Beta-Penta acetyl glucose] 1.06 min

Query CC1OC(OC2C(Oc3cc(O)c4c(c3)OC(c3ccc(O)cc3)CC4=O)OC(CO)C(O)C2O)C(O)C(O)C1O (stereo unspecified) [Naringin CHR] next 7.51 min

Now give it for O=C(O)C(O)C(O)C(OC1OC(CO)C(O)C(O)C1O)C(O)CO (stereo unspecified) [Lactobionic acid] too. 14.3 min

Next record, please: Nc1ncnc2nc[nH]c12 [Adenine] 8.22 min

Repeat with Cl.N[C@@H](CS)C(=O)O.O [L-cysteine hydrochloride hydrate] 11.9 min

Same read-out for Nc1nc2c(ncn2C2OC(CO)C(O)C2O)c(=O)[nH]1 (stereo unspecified) [Guanosine] ? 10.6 min

Input OCC1OC(OC2C(CO)OC(O)C(O)C2O)C(O)C(O)C1O (single isomer, unassigned; peak a) [Lactose Peak A] 13.5 min

Can you handle NC(=O)Cc1c[nH]c2ccccc12 [Indole-3-acetamide] next? 2.48 min

Lookup NC(CO)C(=O)O [Serine L-] 13.2 min

Again, but for O=c1[nH]cnc2nc[nH]c12 [Hypoxanthine] 7.88 min
